- measured.target: wild-type Androgen Receptor (AR-wt) (Homo sapiens, UniProt P10275)
- Construct: expressed in transfected cells; host or cells: LNCaP (LNCaP AR (cs))
- procedure.text: LNCaP-AR-wt AG reporter assay (ARE firefly luciferase, agonist mode)
- Format: cell-based
- condition.description: maximum % stimulation (agonist response) over tested concentration range; read-out: LNCaP-AR-wt AG MAX % Stim
endpoint.label: Emax
Answer with the value and then the unit.

- smiles.record: "CNC(=O)c1ccc(N2C(=S)N(c3cnc(C#N)c(C)c3)C(=O)C23CCC3)cc1F"
  result: "0.3%"
- smiles.record: "N#Cc1ncc(N2C(=O)C3(CCC3)N(c3ccc(C(=O)NCCc4ccccc4)c(F)c3)C2=S)cc1C(F)(F)F"
  result: "0.3%"
- smiles.record: "Cc1cc(N2C(=O)C3(CCC3)N(c3ccc(OC4CCS(=O)(=O)CC4)cc3)C2=S)cnc1C#N"
  result: "0.4%"
- smiles.record: "N#Cc1ncc(N2C(=O)C3(CCC3)N(c3ccc(OC4CCOCC4)cc3)C2=S)cc1C(F)(F)F"
  result: "1.1%"
- smiles.record: "CCN1CCC(Oc2ccc(N3C(=S)N(c4cnc(C#N)c(C)c4)C(=O)C34CCC4)cc2)CC1"
  result: "1.1%"

Lab book: Emax of "Cc1cc(N2C(=O)C3(CCC3)N(c3ccc(OC4CCNCC4)cc3)C2=S)cnc1C#N" noted as 0.1%

Lab book: Emax of "N#Cc1ncc(N2C(=O)C3(CCC3)N(c3ccc(C(=O)NCc4cccc(Cl)c4)c(F)c3)C2=S)cc1C(F)(F)F" noted as 0.2%

Lab book: Emax of "N#Cc1ncc(N2C(=O)C3(CCC3)N(c3ccc(C(=O)NCCCO)c(F)c3)C2=S)cc1C(F)(F)F" noted as -0.3%

Lab book: Emax of "N#Cc1ncc(N2C(=O)C3(CCC3)N(c3ccc(C(=O)NCc4ccco4)c(F)c3)C2=S)cc1C(F)(F)F" noted as 1.9%

Lab book: Emax of "N#Cc1ncc(N2C(=O)C3(CCC3)N(c3ccc(C(=O)NCCCN4CCCC4)c(F)c3)C2=S)cc1C(F)(F)F" noted as 0.4%

* * *

compounds and their reported IC50
- measured.target: wild-type Androgen Receptor (AR-wt) (Homo sapiens, UniProt P10275)
- Construct: expressed in transfected cells; host or cells: LNCaP (LNCaP AR (cs))
- Sequence (P10275 1-920): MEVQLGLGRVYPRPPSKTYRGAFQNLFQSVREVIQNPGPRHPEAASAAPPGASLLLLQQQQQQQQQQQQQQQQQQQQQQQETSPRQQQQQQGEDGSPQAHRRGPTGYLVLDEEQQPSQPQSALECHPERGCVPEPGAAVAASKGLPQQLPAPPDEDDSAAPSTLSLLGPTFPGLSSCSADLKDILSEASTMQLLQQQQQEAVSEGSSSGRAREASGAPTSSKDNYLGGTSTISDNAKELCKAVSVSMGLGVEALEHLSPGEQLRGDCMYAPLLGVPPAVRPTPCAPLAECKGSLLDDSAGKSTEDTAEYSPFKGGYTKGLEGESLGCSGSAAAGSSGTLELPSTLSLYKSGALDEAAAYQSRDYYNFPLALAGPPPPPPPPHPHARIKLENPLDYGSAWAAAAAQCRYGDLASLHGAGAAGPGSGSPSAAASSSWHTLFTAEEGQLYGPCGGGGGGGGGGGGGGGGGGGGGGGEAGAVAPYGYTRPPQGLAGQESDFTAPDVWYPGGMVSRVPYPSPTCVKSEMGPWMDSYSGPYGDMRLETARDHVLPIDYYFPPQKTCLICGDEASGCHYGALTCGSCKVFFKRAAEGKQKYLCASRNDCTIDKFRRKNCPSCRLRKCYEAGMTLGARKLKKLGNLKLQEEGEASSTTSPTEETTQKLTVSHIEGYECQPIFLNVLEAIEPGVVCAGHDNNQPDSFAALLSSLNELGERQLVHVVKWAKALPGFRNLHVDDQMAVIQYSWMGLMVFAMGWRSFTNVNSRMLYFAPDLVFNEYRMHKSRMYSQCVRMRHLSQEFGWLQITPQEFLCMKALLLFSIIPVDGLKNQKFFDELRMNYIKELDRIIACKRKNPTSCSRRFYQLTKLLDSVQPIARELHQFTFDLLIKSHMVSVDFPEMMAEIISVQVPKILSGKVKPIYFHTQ
- procedure.text: LNCaP-AR-wt ANT reporter assay (ARE firefly luciferase, antagonist mode)
- Format: cell-based
- condition.description: antagonist mode, 400 pM R-1881 challenge; −Log10(IC50 [Molar]); read-out: LNCaP-AR-wt ANT pIC50 (converted)
Output spec: scalar in nM, unitless text.

Here is how some compounds turned out for IC50.
- smiles.record: "N#Cc1ncc(N2C(=O)C3(CCC3)N(c3ccc(OC(F)(F)F)cc3)C2=S)cc1C(F)(F)F"
  measured.target: "wild-type Androgen Receptor (AR-wt) (Homo sapiens, UniProt P10275)"
  unit.string: "nM"
  numeric.readout: 398
- smiles.record: "Cc1ccc(CNC(=O)c2ccc(N3C(=S)N(c4cnc(C#N)c(C(F)(F)F)c4)C(=O)C34CCC4)cc2F)o1"
  measured.target: "wild-type Androgen Receptor (AR-wt) (Homo sapiens, UniProt P10275)"
  unit.string: "nM"
  numeric.readout: 813
- smiles.record: "C#CCNC(=O)c1ccc(N2C(=S)N(c3cnc(C#N)c(C(F)(F)F)c3)C(=O)C23CCC3)cc1F"
  measured.target: "wild-type Androgen Receptor (AR-wt) (Homo sapiens, UniProt P10275)"
  unit.string: "nM"
  numeric.readout: 407

Now let's try a different one.
Lab book: IC50 of "Cc1cc(N2C(=O)C3(CCC3)N(c3ccc(-c4cncnc4)cc3)C2=S)cnc1C#N" noted as 407

* * *

- measured.target: F876L mutant Androgen Receptor (AR-F876L) (Homo sapiens, UniProt P10275, F877L)
- Construct: expressed in transfected cells; host or cells: LNCaP (LNCaP F876L)
- procedure.text: LNCaP-AR-F876L AG reporter assay (ARE firefly luciferase, agonist mode)
- Assay type: cell-based
- condition.description: maximum % stimulation (agonist response) over tested concentration range; read-out: LNCaP-AR-F876L AG MAX % Stim
compounds and their reported Emax
Output spec: scalar in %, unitless text.

Here is how some compounds turned out for Emax.
- smiles.record: "N#Cc1ncc(N2C(=O)C3(CCC3)N(c3ccc(C(=O)NCCCN4CCCC4=O)c(F)c3)C2=S)cc1C(F)(F)F"
  unit.string: "%"
  Emax: 0.3
- smiles.record: "CN1CCN(Cc2ccc(N3C(=S)N(c4cnc(C#N)c(C(F)(F)F)c4)C(=O)C34CCC4)cc2)CC1"
  unit.string: "%"
  Emax: 0.1

Lab book: Emax of "Cc1cc(N2C(=O)C3(CCC3)N(c3ccc(C(=O)NCC4CCOCC4)c(F)c3)C2=S)cnc1C#N" noted as -0.3

Lab book: Emax of "CCCCNC(=O)c1ccc(N2C(=S)N(c3cnc(C#N)c(C(F)(F)F)c3)C(=O)C23CCC3)cc1F" noted as 0.6

* * *

- measured.target: wild-type Androgen Receptor (AR-wt) (Homo sapiens, UniProt P10275)
- Construct: expressed in transfected cells; host or cells: LNCaP (LNCaP AR (cs))
- Sequence (P10275 1-920): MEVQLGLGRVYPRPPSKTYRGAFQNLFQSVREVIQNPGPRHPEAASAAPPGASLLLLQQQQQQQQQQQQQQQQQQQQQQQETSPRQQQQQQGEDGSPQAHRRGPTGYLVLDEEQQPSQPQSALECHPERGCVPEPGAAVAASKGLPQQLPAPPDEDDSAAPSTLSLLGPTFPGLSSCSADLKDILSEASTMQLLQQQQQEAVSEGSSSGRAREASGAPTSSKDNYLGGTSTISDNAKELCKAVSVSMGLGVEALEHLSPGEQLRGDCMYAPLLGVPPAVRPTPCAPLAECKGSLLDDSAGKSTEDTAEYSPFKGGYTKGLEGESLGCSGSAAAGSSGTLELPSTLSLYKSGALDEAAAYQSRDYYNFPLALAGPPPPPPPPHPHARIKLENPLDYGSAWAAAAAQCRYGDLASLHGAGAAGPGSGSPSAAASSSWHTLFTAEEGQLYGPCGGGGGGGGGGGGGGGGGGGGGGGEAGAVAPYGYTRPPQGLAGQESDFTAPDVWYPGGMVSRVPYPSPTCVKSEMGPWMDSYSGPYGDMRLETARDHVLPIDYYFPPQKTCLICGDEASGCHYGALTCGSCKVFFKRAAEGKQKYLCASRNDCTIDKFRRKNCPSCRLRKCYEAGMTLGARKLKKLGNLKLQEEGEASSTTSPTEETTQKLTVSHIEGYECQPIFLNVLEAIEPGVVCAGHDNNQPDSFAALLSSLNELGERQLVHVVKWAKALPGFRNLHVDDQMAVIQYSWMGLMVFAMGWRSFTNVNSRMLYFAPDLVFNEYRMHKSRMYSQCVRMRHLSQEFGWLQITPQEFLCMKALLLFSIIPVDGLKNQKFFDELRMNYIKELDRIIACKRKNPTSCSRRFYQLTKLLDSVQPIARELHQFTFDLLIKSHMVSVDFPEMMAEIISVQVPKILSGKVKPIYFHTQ
- procedure.text: LNCaP-AR-wt ANT reporter assay (ARE firefly luciferase, antagonist mode)
- Assay type: cell-based
- condition.description: antagonist mode, 400 pM R-1881 challenge; −Log10(IC50 [Molar]); read-out: LNCaP-AR-wt ANT pIC50 (converted)
endpoint.label: IC50

Here is how some compounds turned out for IC50.
- smiles.record: "N#Cc1ncc(N2C(=O)C3(CCC3)N(c3ccc(C(=O)NCCCc4ccccc4)c(F)c3)C2=S)cc1C(F)(F)F"
  IC50: "324 nM"
- smiles.record: "CN1CCC(Oc2ccc(N3C(=S)N(c4cnc(C#N)c(C(F)(F)F)c4)C(=O)C34CCC4)c(F)c2)CC1"
  IC50: "501 nM"
- smiles.record: "N#Cc1ncc(N2C(=O)C3(CCC3)N(c3ccc(C(=O)NCC4CCCC4)c(F)c3)C2=S)cc1C(F)(F)F"
  IC50: "724 nM"

Lab book: IC50 of "Cc1cc(N2C(=O)C3(CCC3)N(c3ccc(OC4CCNCC4)cc3)C2=S)cnc1C#N" noted as 2240 nM

Lab book: IC50 of "N#Cc1ncc(N2C(=O)C3(CCC3)N(c3ccc(C(=O)NCCCN4CCCC4)c(F)c3)C2=S)cc1C(F)(F)F" noted as 1100 nM

// provenance: patent US20180008587A1
